Here, each record is paired with measured protein stability index data.
test details: protein stability index of a GFP-peptide fusion (yeast GPS) (PSI 1-4); higher = more stable; sorted into four equal gates, so the index is relative within each strain
measurement parameters: pdr5∆
When you answer, write just the number.

Some solved entries appear below for comparison.
> print(dat)
               residue.codes  observed.value
1  EIYRISFQLSKIRRAAR [RPS9A]            2.15
2   NQFLKIKKKRKELFEKT [SMC1]               3
3   TVNGQARDLATMTYEEV [FAS1]            3.15
4   LNVVLDDAMEINGEDPA [SMX2]            3.31
5   TYDKETITDLIEQGIPK [SIR4]            3.39
6   SQLLLERLMISSDAFEV [RET1]             2.4
7   LERTDLKSKVIDSPELL [RPN7]            3.01
8   AFPKDDRSKPVALTSFL [RPL3]            2.75

Recorded result, SPPCYIIDHIPGHSLLL [SNF5] , protein stability index: 2.54

Measured protein stability index, TWIQQFKSTMLQVSEKD [ARP7] : 1.86

// protein stability index lookup, sequence = KVAHTSYKRIYGEYPPT [PRE8] , result: 3.14

* * *

test details: protein stability index of a GFP-peptide fusion (yeast GPS) (PSI 1-4); higher = more stable; sorted into four equal gates, so the index is relative within each strain
measurement parameters: doa10∆
quantity measured: protein stability index
When you answer, write just the number.

Summary for this sequence, FEYSKYRPLTPSSEVYS [RRP6] : protein stability index is 3.07

Entry KGDINPEVSMIRDIREK [RPB2] , protein stability index reported as 3.29

* * *

test details: protein stability index of a GFP-peptide fusion (yeast GPS) (PSI 1-4); higher = more stable; sorted into four equal gates, so the index is relative within each strain
measurement parameters: pdr5∆
Cut-off 3 on protein stability index, inclusive. At or above means Condition met; below means Condition not met.

Before answering, review these 4 worked examples.
> print(dat)
                      residue.codes              group
1          MSDFVPIDAGLNEAPFP [MCD1]  Condition not met
2          MDEMDNVIRSLEQEYRL [RMP1]  Condition not met
3        DITDGKDYHTLANNVES [RPS18A]      Condition met
4  NNNETSKPAFSFGAKSD [YJL041W/NSP1]      Condition met

Asked: Please tell me: is the sequence NNTVDPGFDEFQLIDMK [CSI1] at or over 3 in terms of protein stability index?
Given back: Condition met

Asked: Confirm if protein stability index reported for the sequence ADGPTMREITETIAEAK [RPO21] is 3 or above.
Given back: Condition met

Asked: Is protein stability index at least 3? Consider VNCFHEDTELYQELIKN [YJL039C/NUP192]
Given back: Condition not met

Asked: protein stability index >= 3 for CSPKLPVEKVQRIAKND [DLS1] ?
Given back: Condition met

Asked: For this sequence, is measured protein stability index 3 or higher? LVLGEVSKKELYAIKKV [BRR2]
Given back: Condition not met

Asked: Please check the record QFNEFIQIMANIDQEGS [PGD1] and state if its protein stability index is at or above 3.
Given back: Condition not met

* * *

test details: protein stability index of a GFP-peptide fusion (yeast GPS) (PSI 1-4); higher = more stable; sorted into four equal gates, so the index is relative within each strain
measurement parameters: doa10∆
quantity measured: protein stability index
Just the number, please, no unit attached.

# count of solved cases: 5
> print(dat)
               residue.codes        quantity.measured  observed.value
1   TRDEETTKLAFLVEYEG [SIR4]  protein stability index            3.02
2  VKYINFGKTVKDGPFYT [RPC31]  protein stability index               3
3  LTDKDAFETHYRRLFAK [CDC53]  protein stability index            2.94
4   APGTEAGIVPVSANTPK [SWI1]  protein stability index            3.06
5   FVSESPSFVKSGKLRDY [ISW2]  protein stability index            2.41

The recorded protein stability index for entry SMILIQQTEKLNPQVAD [RPN2] equals 1.53

Lab note: FAGVASMNVTLGVPRIK [RPO31] gave protein stability index of 2.82

* * *

test details: protein stability index of a GFP-peptide fusion (yeast GPS) (PSI 1-4); higher = more stable; sorted into four equal gates, so the index is relative within each strain
measurement parameters: ubr1∆
quantity measured: protein stability index

Documented protein stability index of SVTETESISQTPISNEQ [SRP68] : 2.96

# protein stability index (sequence: IYSRDIGAELKREESES [SNF2] ) is 3.01

Per the records, this sequence ( LADDDEERFSELFKGYL [RPL5] ) has protein stability index equal to 3.01

// recorded protein stability index for ADAKAFLDSMAQKYASI [FAS2] : 2.94

* * *

test details: protein stability index of a GFP-peptide fusion (yeast GPS) (PSI 1-4); higher = more stable; sorted into four equal gates, so the index is relative within each strain
measurement parameters: doa10∆
quantity measured: protein stability index
Write the number on its own, no unit after it.

Here is how some sequences turned out for protein stability index.
> print(dat)
              residue.codes        quantity.measured  observed.value
1  DNEEASVKLDLQDDEDH [BRN1]  protein stability index            2.99
2  HGQKGVCGIIVKQEDMP [RET1]  protein stability index            2.93

Would you kindly look at the next entry?
Summary for this sequence, NNNETSKPAFSFGAKSD [YJL041W/NSP1] : protein stability index is 2.93

* * *

test details: protein stability index of a GFP-peptide fusion (yeast GPS) (PSI 1-4); higher = more stable; sorted into four equal gates, so the index is relative within each strain
measurement parameters: ubr1∆
Classification field: enter Yes for protein stability index values not below 2, No for values below it.

Illustrative cases are given below, each with its answer.
> print(dat)
              residue.codes  group
1  IEIMGILMGFTLKDNIV [RRI1]    Yes
2  KDQALIGTINSIVHINS [SIR2]     No
3  SKEKANFLETIASTEKP [SIR4]    Yes

Asked: Is protein stability index at least 2? Consider VNIPSFMVRLDSEKHID [RPS9A]
Given back: Yes

Asked: Does EKDASGKPSFVFGASDK [YOR098C/NUP1] have a reported protein stability index of at least 2?
Given back: Yes

Asked: Could you please find out whether NLFGATANANKPAFSFG [YJL041W/NSP1] has protein stability index that meets 2 or exceeds it?
Given back: Yes

Asked: Record EVTKEEDIIANYASVYP [RRP43] ; criterion: protein stability index no lower than 2. Met?
Given back: Yes

Asked: # bool: protein stability index of AIANTLLYLRLKNIYVS [PRP8] >= 2
Given back: No

* * *

test details: protein stability index of a GFP-peptide fusion (yeast GPS) (PSI 1-4); higher = more stable; sorted into four equal gates, so the index is relative within each strain
measurement parameters: san1∆
Each entry below carries its recorded protein stability index.
// print number alone

Guide cases for protein stability index, answers given:
> print(dat)
               residue.codes  observed.value
1   AIANTLLYLRLKNIYVS [PRP8]            1.38
2   EDVALNEQVKKFFLNNV [NAS6]            2.44
3   MDAYSTRPLTLSHGSLE [FAS1]            3.05
4  DQQSPWLLRLELDRAAM [RPO21]            1.93
5   LTCSLYELYINKLTILG [IRR1]            1.34

So, QILENYNALFQQNIKFR [YJL039C/NUP192] ? Its protein stability index was 2.86

# sequence AKHAVSEGTRAVTKYSS [HTB1] ; its protein stability index = 3.41

The measured protein stability index associated with FEETKLSTTPTKSNRRV [SIR4] reads 2.73

* * *

test details: protein stability index of a GFP-peptide fusion (yeast GPS) (PSI 1-4); higher = more stable; sorted into four equal gates, so the index is relative within each strain
measurement parameters: doa10∆
quantity measured: protein stability index
Format: numeric value only, no unit, no commentary.

Some solved entries appear below for comparison.
> print(dat)
              residue.codes        quantity.measured  observed.value
1  KIAKRRQVYKPVLDNPF [POP3]  protein stability index            1.92
2  EKRIQYAKDILQKEFLP [RPB2]  protein stability index            2.06
3  ESDLYKLKECPFDMGGY [RPB2]  protein stability index            3.13

get_value(item= KDSYVRIANIEQNHLDN [YDL088C/ASM4] , readout=protein stability index) returns 3.12

get_value(item= IHSLIPVAKWFVKFITY [SIN4] , readout=protein stability index) returns 2.7

The sequence listed as QSSSSTRSHEYGRKSFR [REC8] has a reported protein stability index of 2.83

Lookup result for EFVHKYLGEGPRMVRDV [RPT3] ; measured protein stability index: 3.39
